# Measured on: Serotonin (5-HT) receptor
# Assay info: Compound was evaluated for binding affinity towards 5-hydroxytryptamine receptor in isolated rat fundus preparation measured as pA2
pA2 values, listed per item
Readout label: pA2

CCc1cccc2c(CCN(C)C)c[nH]c12 6.31
COc1cc(OC)c2[nH]cc(CCN(C)C)c2c1 5.5
CN(C)CCc1c[nH]c2c(Br)cccc12 6.51
COc1cc(C)c2[nH]cc(CCN(C)C)c2c1 6.61
Cc1cccc2c(CCN(C)C)c[nH]c12 6.29
COc1cc2c(CCN(C)C)c[nH]c2c(OC)c1OC 5.98
